test system: NCI-H226; test: NCI tumour cell line growth inhibition, 48 h
The source made the active and inactive calls. No stated cut-off is given here; in the data, active = GI50 up to about 1.1 µM and inactive = higher.
Hello, when you answer, please use one of the following outcomes: 1.0 (active), 0.0 (inactive)

Assay outcome for `CC(C)(C)C1=CC(C)(n2[nH]c(=O)n(-c3ccccc3)c2=O)C=C(C(C)(C)C)C1=O` : what was it?
0.0

Assay outcome for `O=C1C(Br)=C(Br)C(=O)c2c(O)ccc(O)c21` : what was it?
0.0

Assay outcome for `CC(C)=CCC[C@]1(C)C=Cc2c(O)c3c(c(CC=C(C)C)c2O1)O[C@]12C(=C[C@@H]4CC1C(C)(C)O[C@@]2(C/C=C(/C)C(=O)O)C4=O)C3=O` : what was it?
1.0

Assay outcome for `CSC(=S)NN=C1CCCC1.CSC(=S)NN=C1CCCC1.[Zn+2]` : what was it?
0.0

Assay outcome for CCC1CCc2c(OC)ccc(OCC(=O)O)c2C1=O (stereo not drawn) : what was it?
0.0

Assay outcome for `Cn1cc(C(=O)c2ccccc2)ccc1=O` : what was it?
0.0

Assay outcome for CC(O)C1(CNc2cc(Cl)nc(N)n2)CCCC1 (stereo not drawn) : what was it?
0.0

Assay outcome for Cc1ccc(C2(c3ccc(F)cc3)OC(=O)c3ccccc32)c(O)c1 (stereo not drawn) : what was it?
0.0

Assay outcome for `CCCC1=NC(C(F)(F)F)(C(F)(F)F)N=C(N2CCOCC2)O1` : what was it?
0.0

Assay outcome for COc1ccc(OC)c2c1C=C[C@H](C1(C)SCCS1)C2C(C)=O (stereo partly drawn) : what was it?
0.0

Assay outcome for CC(=O)NC1(C)CCC(C(C)(C)NC(C)=O)CC1 (stereo not drawn) : what was it?
0.0

Assay outcome for COc1cc(OC2OC(COC(=O)c3cc(O)c(O)c(O)c3)C(O)C(O)C2O)ccc1O (stereo not drawn) : what was it?
0.0

Assay outcome for `CCOC(=O)Cc1csc(Nc2ccc(OCC)cc2)n1` : what was it?
0.0

Assay outcome for `COc1cc(OC)c2nc(C)c3c(c2c1)OCC3` : what was it?
0.0

Assay outcome for `CCOC(=N)CC(=O)Nc1ccc(Cl)cc1` : what was it?
0.0

Assay outcome for CC(C)NCC(O)c1ccc(O)c2ncccc12 (stereo not drawn) : what was it?
0.0

Assay outcome for Cc1cccc(C)c1NC(=O)CCCC(=O)C1/C(=N/NC(=O)CC#N)CCC/C1=N\NC(=O)CC#N (stereo not drawn) : what was it?
0.0

Assay outcome for `O=C(/C=C/c1ccccc1O)c1cccnc1` : what was it?
0.0

Assay outcome for `C/C(CN1C(=O)c2ccccc2C1=O)=N\NS(=O)(=O)c1ccc(F)cc1` : what was it?
0.0

Assay outcome for Nc1ccc(C(=O)NN2C(=O)C(Cl)C2c2ccccc2O)cc1 (stereo not drawn) : what was it?
0.0

Assay outcome for `O=P(O)(O)CN1CCN(CP(=O)(O)O)CCN(CP(=O)(O)O)CCN(CP(=O)(O)O)CC1` : what was it?
0.0

Assay outcome for `CCOC(=O)c1ccc(-c2cccs2)[nH]1` : what was it?
0.0

Assay outcome for `C=CCN1C(=O)/C(=C/c2ccc(C)cc2)NC1=S` : what was it?
0.0
